experiment: Dissociation constant, pKa by spectrophotometry; assay type: physicochemical
Parameter measured: pKa
Numbers only.

Example entries begin here.
| Mol | pKa |
| --- | --- |
| COc1ccc2nc3cc(Cl)ccc3c(NCCCCCCN)c2c1 | 9.2 |
| CCCCCCCNc1c2ccc(Cl)cc2nc2ccc(OC)cc12 | 7.5 |
| COc1ccc2nc3cc(Cl)ccc3c(NCCCCN)c2c1 | 9.1 |

Please look at the items below and tell me pKa for each one, in order.
1. NCCCCCCCC(=O)Nc1c2ccccc2nc2ccccc12
2. NCCC(=O)NCCC(=O)Nc1c2ccccc2nc2ccccc12
3. NCCCCCCNc1c2ccccc2nc2ccccc12
4. COc1ccc2nc3cc(Cl)ccc3c(NCCCCCCNc3c4ccc(Cl)cc4nc4ccc(OC)cc34)c2c1
5. COc1ccc2nc3cc(Cl)ccc3c(NCCN)c2c1

Output line:
[4.59, 4.53, 9.86, 8.23, 7.94]
